molecular target: T1, human IL-17A (human, UniProt Q16552 24-155); test: SPR Biacore, captured binder
T1 construct: Purified recombinant; biotinylated in the ELISA; also called HuIL-17A; Hu IL-17A
T1 sequence (Q16552 24-155 limits assumed): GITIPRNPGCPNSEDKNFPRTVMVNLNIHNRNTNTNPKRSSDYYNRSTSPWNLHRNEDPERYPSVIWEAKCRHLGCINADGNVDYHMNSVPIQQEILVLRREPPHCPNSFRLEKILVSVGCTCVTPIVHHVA
Measured kon accompanies every entry in the list below.
measurementName: kon (M⁻¹ s⁻¹)

binder	readoutNumber
IL17-TN-K7-B6 (antibody, V domains shown, Fully human antibody) VH: EVQLVQSGAEVKKPGESLKISCKASGGSFRSYGISWVRQAPGQGLEWMGGITPILGTANYAQKFQGRVTITADESTTTAYMELSGLTSDDTAVYYCAREPNDFWNGYYTTHHFDYWGQGTPVTVSS VL: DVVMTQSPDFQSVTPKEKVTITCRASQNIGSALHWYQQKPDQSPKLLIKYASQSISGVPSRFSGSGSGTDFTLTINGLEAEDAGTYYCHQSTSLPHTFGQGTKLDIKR	17500
IL17-B6-16 (antibody, V domains shown) VH: EVQLVQSGAEVKMPGSSLKISCKASGGSFRGYGISWVRQAPGQGLEWMGGITPFFGWADYAQKFQGRVTITADESTTTAYMELSGLTSDDTAVYYCARDPNEFWNGYYDTHHFDYWGQGTTVTVSS VL: EIVLTQSPDFQSVTPKEKVTITCRASQDIGSALHWYQQKPDQSPKLLIKYASHSVSGVPSRFSGSGSGTDFTLTINGLEAEDAGTYYCHQSDILPHTFGPGTKVDIK	3.78e+06
IL17-G9-M2 (antibody, V domains shown, converted into IgG) VH: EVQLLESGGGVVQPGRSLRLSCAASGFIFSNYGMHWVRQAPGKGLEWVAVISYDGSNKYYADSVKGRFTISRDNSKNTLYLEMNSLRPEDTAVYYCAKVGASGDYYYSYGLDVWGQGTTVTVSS VL: QSVLTQPPSASGTPGQTVSISCSGHNSNIGYHYVHWYQQVPGAAPKLLIYGDGWRPSGVPDRFSGSQSGTSASLAISGLQSEDEADYYCGTWDDWLGGYVFGTGTKVTVLG	281000
IL17-G9-M1 (antibody, V domains shown) VH: EVQLLESGGGVVQPGRSLRLSCAASGFIFSNYGMHWVRQAPGKGLEWVAVISYDGGYKYYADSVKGRFTISRDNSKNTLYLEMNSLRPEDTAVYYCAKLSLSGDYYYSYGFDGWGQGTTVTVSS VL: QSVLTQPPSASGTPGQTVSISCSGSKSNIGSHYVHWYQQVPGAAPKLLMYDFGQRPSGVPDRFSGSQSGTSASLAISGLQSEDEADYYCGTWDDWLGGYVFGTGTKVTVLG	311000
IL17-B6-5 (antibody, V domains shown, also called pJP243 B6.1 #5VH / pJP244 B6.1 #5VK) VH: EVQLVQSGAEVKKPGESVKISCKASGGSFRSYGISWVRQAPGQGLEWMGGITHFFGITDYAQKFQGRVTITADESTTTAYMELSGLTSDDTAVYYCAREPNDFWNGYYDTHDFDSWGQGTTVTVSS VL: EIVLTQSPDFQSVTPKEKVTITCRASQNIGSELHWYQQKPDQSPKLLIKYASHSISGVPSRFSGSGSGTDFTLTINGLEAEDAATYYCHQSDTLPHTFGQGTKVDIK	7.2e+06
